Assay: Tmax in Sprague-Dawley rat at 10 mg/kg, po administered as cassette dose measured upto 24 hrs by LC-MS analysis
Assay type: ADME, organism-based
Details: in vivo
Value type: Tmax

| Compound | Result |
| --- | --- |
| Nc1ncnc2c1c(-c1ccc(Oc3ccccc3)cc1)nn2[C@@H]1CCCN(C(=O)CC(=O)NCC#CCN2CCN(CC#Cc3ccc4c(c3)CN(C3CCC(=O)NC3=O)C4=O)CC2)C1 (some centres not stated) | 42 min |
| Nc1ncnc2c1c(-c1ccc(Oc3ccccc3)cc1)nn2[C@@H]1CCCN(C(=O)CCC(=O)N2CCN(CC#Cc3ccc4c(c3)CN(C3CCC(=O)NC3=O)C4=O)CC2)C1 (some centres not stated) | 42 min |
